ASSAY_SYSTEM: CFTR (F508del/MF-HBE cells) (Homo sapiens, UniProt P13569, DEL508-508)
Construct: human bronchial epithelial (HBE) cells derived from CF subjects heterozygous for F508del and a minimal function CFTR mutation; endogenous in cells
Sequence (P13569 with tags, fused parts or gaps DEL508-508): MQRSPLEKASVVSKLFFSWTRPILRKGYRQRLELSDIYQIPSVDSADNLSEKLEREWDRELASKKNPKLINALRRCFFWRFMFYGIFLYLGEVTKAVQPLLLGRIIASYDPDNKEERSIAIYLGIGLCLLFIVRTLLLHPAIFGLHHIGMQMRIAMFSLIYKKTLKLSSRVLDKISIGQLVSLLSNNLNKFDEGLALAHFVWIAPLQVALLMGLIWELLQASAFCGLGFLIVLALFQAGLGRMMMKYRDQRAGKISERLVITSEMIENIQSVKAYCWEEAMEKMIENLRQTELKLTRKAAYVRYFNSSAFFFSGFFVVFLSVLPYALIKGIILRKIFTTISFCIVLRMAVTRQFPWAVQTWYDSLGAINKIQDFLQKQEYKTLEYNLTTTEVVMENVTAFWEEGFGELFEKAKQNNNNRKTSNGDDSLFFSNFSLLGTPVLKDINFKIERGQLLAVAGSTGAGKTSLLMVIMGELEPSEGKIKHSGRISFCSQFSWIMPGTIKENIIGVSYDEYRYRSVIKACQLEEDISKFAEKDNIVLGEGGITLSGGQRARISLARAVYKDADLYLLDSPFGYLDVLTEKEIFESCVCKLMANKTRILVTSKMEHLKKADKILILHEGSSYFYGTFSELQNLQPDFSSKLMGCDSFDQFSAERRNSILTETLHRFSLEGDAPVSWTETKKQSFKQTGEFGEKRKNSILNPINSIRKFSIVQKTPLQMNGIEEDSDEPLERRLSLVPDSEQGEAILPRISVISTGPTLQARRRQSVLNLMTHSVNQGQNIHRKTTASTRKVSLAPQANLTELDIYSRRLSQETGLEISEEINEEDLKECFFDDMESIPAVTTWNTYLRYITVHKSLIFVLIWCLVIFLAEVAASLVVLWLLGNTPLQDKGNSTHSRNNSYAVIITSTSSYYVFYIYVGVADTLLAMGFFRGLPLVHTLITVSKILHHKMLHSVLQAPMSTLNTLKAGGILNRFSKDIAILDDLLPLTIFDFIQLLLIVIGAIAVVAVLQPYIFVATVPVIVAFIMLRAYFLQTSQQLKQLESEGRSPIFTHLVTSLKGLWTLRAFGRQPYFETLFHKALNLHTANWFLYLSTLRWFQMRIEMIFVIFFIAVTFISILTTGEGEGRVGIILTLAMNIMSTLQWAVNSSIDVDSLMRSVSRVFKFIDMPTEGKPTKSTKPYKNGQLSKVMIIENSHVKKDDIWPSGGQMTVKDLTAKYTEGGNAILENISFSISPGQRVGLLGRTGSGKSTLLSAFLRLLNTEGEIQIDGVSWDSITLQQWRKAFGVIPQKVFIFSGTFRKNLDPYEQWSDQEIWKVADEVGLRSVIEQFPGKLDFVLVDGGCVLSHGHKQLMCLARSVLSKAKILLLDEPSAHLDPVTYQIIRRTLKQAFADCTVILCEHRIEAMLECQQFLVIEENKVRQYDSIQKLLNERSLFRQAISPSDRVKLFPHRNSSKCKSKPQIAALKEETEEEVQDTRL
RUN_DESCRIPTION: Ussing chamber assay of CFTR-mediated short-circuit currents (identification of potentiator compounds)
TEST_CONTEXT: CFTR-mediated ISC in F508del/MF-HBE cells; incubated 18-24 hours at 37° C. with 10 μM (14S)-8-[3-(2-{dispiro[2.0.2.1]heptan-7-yl}ethoxy)-1H-pyrazol-1-yl]-...-2,2,4-trione, 20% human serum
pEC50: −log10 of the molar value.
PROPERTY_NAME: pEC50

Quick one: give measured pEC50 for `CCNc1cc(C(F)(F)F)c2nc1-c1nnc(o1)[C@@](O)(C(F)(F)F)CCCCC[C@@H]1CCCN21`
> 6.30

Quick one: give measured pEC50 for CC1(C)CCCCC(O)(C(F)(F)F)C2=NN=C(O2)c2nc(c(C(F)(F)F)cc2N)NC1 (single isomer, unassigned) [Compound 172]
> 6.30

Quick one: give measured pEC50 for Nc1cc(C(F)(F)F)c2nc1-c1nnc(o1)C(O)(C(F)(F)F)CCCCCC1CCS(=O)(=O)N21 (single isomer, unassigned) [Compound 113]
< 6.00

====

ASSAY_SYSTEM: CFTR (F508del/MF-HBE cells) (Homo sapiens, UniProt P13569, DEL508-508)
Construct: human bronchial epithelial (HBE) cells derived from CF subjects heterozygous for F508del and a minimal function CFTR mutation; endogenous in cells
RUN_DESCRIPTION: Ussing chamber assay of CFTR-mediated short-circuit currents (identification of potentiator compounds)
TEST_CONTEXT: CFTR-mediated ISC in F508del/MF-HBE cells; incubated 18-24 hours at 37° C. with 10 μM (14S)-8-[3-(2-{dispiro[2.0.2.1]heptan-7-yl}ethoxy)-1H-pyrazol-1-yl]-...-2,2,4-trione, 20% human serum
Could you please report measured EC50 for the items listed next?

Quick one: give measured EC50 for CN1CCCCCCC(O)(c2ccccc2)C2=NN=C(O2)c2nc1c(C(F)(F)F)cc2N (single isomer, unassigned) [Compound 77]
> 1000 nM

Quick one: give measured EC50 for Nc1cc(C(F)(F)F)c2nc1-c1nnc(o1)C(O)(C(F)(F)F)CCCC[C@@H]1CCCN21 (single isomer, unassigned) [Compound 33]
> 1000 nM

Quick one: give measured EC50 for CC1(C)COCCCC(O)(C(F)(F)F)C2=NN=C(O2)c2nc(c(C(F)(F)F)cc2N)N1 (single isomer, unassigned)
< 500 nM

Quick one: give measured EC50 for `Nc1cc(C(F)(F)F)c2nc1-c1nnc(o1)[C@@](O)(C(F)(F)F)CCCCCC1(CCOCC1)N2`
< 500 nM

Quick one: give measured EC50 for CN(C)C(=O)C1CCCCCC(O)(C(F)(F)F)C2=NN=C(O2)c2nc(c(C(F)(F)F)cc2N)N1 (single isomer, unassigned) [Compound 148]
< 500 nM

Quick one: give measured EC50 for CC1(C)CCC(O)CC[C@](O)(C(F)(F)F)C2=NN=C(O2)c2nc(c(C(F)(F)F)cc2N)N1 (single isomer, unassigned) [Compound 190]
< 500 nM

====

ASSAY_SYSTEM: CFTR (F508del/MF-HBE cells) (Homo sapiens, UniProt P13569, DEL508-508)
Construct: human bronchial epithelial (HBE) cells derived from CF subjects heterozygous for F508del and a minimal function CFTR mutation; endogenous in cells
RUN_DESCRIPTION: Ussing chamber assay of CFTR-mediated short-circuit currents (identification of potentiator compounds)
TEST_CONTEXT: CFTR-mediated ISC in F508del/MF-HBE cells; incubated 18-24 hours at 37° C. with 10 μM (14S)-8-[3-(2-{dispiro[2.0.2.1]heptan-7-yl}ethoxy)-1H-pyrazol-1-yl]-...-2,2,4-trione, 20% human serum
pEC50: −log10 of the molar value.
PROPERTY_NAME: pEC50

Quick one: give measured pEC50 for Nc1cc(C(F)(F)F)c2nc1-c1nnc(o1)C(O)(C(F)(F)F)CCCCC[C@@H]1COCC(=O)N21 (single isomer, unassigned) [Compound 116]
> 6.30

Quick one: give measured pEC50 for Nc1cc(Br)c2nc1-c1nnc(o1)C(O)(C(F)(F)F)CCCCC[C@@H]1CCCN21 (stereo partly drawn)
> 6.30

Quick one: give measured pEC50 for Nc1cc(C(F)(F)F)c2nc1-c1nnc(o1)C(O)(C(F)(F)F)c1cccc(c1)CCC[C@@H]1CCCN21 (single isomer, unassigned)
> 6.30

====

ASSAY_SYSTEM: CFTR (F508del/MF-HBE cells) (Homo sapiens, UniProt P13569, DEL508-508)
Construct: human bronchial epithelial (HBE) cells derived from CF subjects heterozygous for F508del and a minimal function CFTR mutation; endogenous in cells
RUN_DESCRIPTION: Ussing chamber assay of CFTR-mediated short-circuit currents (identification of potentiator compounds)
TEST_CONTEXT: CFTR-mediated ISC in F508del/MF-HBE cells; incubated 18-24 hours at 37° C. with 10 μM (14S)-8-[3-(2-{dispiro[2.0.2.1]heptan-7-yl}ethoxy)-1H-pyrazol-1-yl]-...-2,2,4-trione, 20% human serum
pEC50: −log10 of the molar value.
PROPERTY_NAME: pEC50

Quick one: give measured pEC50 for Nc1cc(C(F)(F)F)c2nc1-c1nnc(o1)[C@@](O)(C(F)(F)F)CCCCCC(C(=O)O)N2 (single isomer, unassigned) [Compound 155]
< 6.00

Quick one: give measured pEC50 for CN1CCCCCCC(C)(O)C2=NN=C(O2)c2nc1c(C(F)(F)F)cc2N (single isomer, unassigned) [Compound 62]
> 6.30

Quick one: give measured pEC50 for CN1CCCCCCC(O)(C(F)(F)F)C2=NN=C(O2)c2nc1c(S(C)(=O)=O)cc2N (single isomer, unassigned) [Compound 40]
6.00 to 6.30

Quick one: give measured pEC50 for Nc1cc(C(F)(F)F)c2nc1-c1nnc(o1)C(O)(C(F)(F)F)CCCCC[C@@H]1COCCN21 (single isomer, unassigned) [Compound 55]
< 6.00

Quick one: give measured pEC50 for CP(C)(=O)c1cc(N)c2nc1N1CCC[C@H]1CCCCCC(O)(C(F)(F)F)C1=NN=C2O1 (single isomer, unassigned) [Compound 98]
< 6.00

Quick one: give measured pEC50 for Nc1cc(C(F)(F)F)c2nc1-c1nnc(o1)C(O)(C1CCOCC1)CCCCC[C@@H]1CCCN21 (single isomer, unassigned) [Compound 88]
> 6.30

Quick one: give measured pEC50 for Nc1cc(Sc2ccc(OC(F)(F)F)cc2)c2nc1-c1nnc(o1)C(O)(C(F)(F)F)CCCCC[C@@H]1CCCN21 (stereo partly shown)
> 6.30

Quick one: give measured pEC50 for Nc1cc(-c2cn[nH]c2)c2nc1-c1nnc(o1)C(O)(C(F)(F)F)CCCCC[C@@H]1CCCN21 (mixture of isomers)
> 6.30

Quick one: give measured pEC50 for Nc1cc(C(F)(F)F)c2nc1-c1nnc(o1)C(O)(CO)CCCCC[C@@H]1CCCN21 (single isomer, unassigned) [Compound 101]
> 6.30

Quick one: give measured pEC50 for `CC1(C)CCC[C@H](O)C[C@](O)(C(F)(F)F)C2=NN=C(O2)c2nc(c(C(F)(F)F)cc2N)N1`
> 6.30

Quick one: give measured pEC50 for Nc1cc(C(F)(F)F)c2nc1-c1nnc(o1)C(O)CCCCC[C@@H]1CCCN21 (single isomer, unassigned)
> 6.30

Quick one: give measured pEC50 for Nc1cc(C(F)(F)F)c2nc1-c1nnc(o1)C(O)(C(F)(F)F)c1cc(ccn1)CCC[C@@H]1CCCN21 (single isomer, unassigned) [Compound 84]
> 6.30

Quick one: give measured pEC50 for Nc1cc(C(F)(F)F)c2nc1-c1nnc(o1)C(O)(C(F)(F)F)CCCCC1CCN2C1 (stereo not shown) [Compound 9]
> 6.30

====

Could you please report measured pEC50 for the items listed next?
ASSAY_SYSTEM: CFTR (F508del/MF-HBE cells) (Homo sapiens, UniProt P13569, DEL508-508)
Construct: human bronchial epithelial (HBE) cells derived from CF subjects heterozygous for F508del and a minimal function CFTR mutation; endogenous in cells
RUN_DESCRIPTION: Ussing chamber assay of CFTR-mediated short-circuit currents (identification of potentiator compounds)
TEST_CONTEXT: CFTR-mediated ISC in F508del/MF-HBE cells; incubated 18-24 hours at 37° C. with 10 μM (14S)-8-[3-(2-{dispiro[2.0.2.1]heptan-7-yl}ethoxy)-1H-pyrazol-1-yl]-...-2,2,4-trione, 20% human serum
pEC50: −log10 of the molar value.

Name the value of pEC50 reported for N#Cc1cc(N)c2nc1N1CCC[C@H]1CCCCCC(O)(C(F)(F)F)C1=NN=C2O1 (single isomer, unassigned) [Compound 80] when tested on CFTR (F508del/MF-HBE cells) (Homo sapiens, UniProt P13569, DEL508-508).
> 6.30

Name the value of pEC50 reported for Nc1cc(C(F)(F)F)c2nc1-c1nnc(o1)[C@@](O)(C(F)(F)F)CCCCCC(c1ncco1)N2 (single isomer, unassigned) [Compound 184] when tested on CFTR (F508del/MF-HBE cells) (Homo sapiens, UniProt P13569, DEL508-508).
> 6.30

Name the value of pEC50 reported for CN1CCCCCCC(O)(C(F)(F)F)C2=NN=C(O2)c2nc1c(S(C)(=O)=O)cc2N (single isomer, unassigned) [Compound 39] when tested on CFTR (F508del/MF-HBE cells) (Homo sapiens, UniProt P13569, DEL508-508).
> 6.30

The measured values listed here are drawn from patent US12324802B2.
